// data source = the Human Domainome abundance scans (Beltran et al. 2025)

B1: Myocardin-related transcription factor A, residues 341 to 383; numbered along this chain, Q969V6 (parent)
chain: GALPANLDDMKVAELKQELKLRSLPVSGTKTELIERLRAYQDQ

Variants of: B1
Test: abundance fitness (aPCA) (normalised: wild type 0, dead -1); higher = more abundant; growth selection in yeast, the domain comes from the species named
Details: Homo sapiens
Using abundance fitness as the sorting value, the categories are one (below -0.4), two (-0.4 to below -0.05), three (-0.05 or more)

[[record]]
change = "A39S"
class_assignment = "three"

[[record]]
change = "T29M"
class_assignment = "one"

[[record]]
change = "R36E"
class_assignment = "one"

[[record]]
change = "R22G"
class_assignment = "one"

[[record]]
change = "L33K"
class_assignment = "two"

[[record]]
change = "S27P"
class_assignment = "two"

[[record]]
change = "R22K"
class_assignment = "two"

[[record]]
change = "L37S"
class_assignment = "one"

[[record]]
change = "L37K"
class_assignment = "one"

[[record]]
change = "L21E"
class_assignment = "three"

[[record]]
change = "Q41R"
class_assignment = "three"

[[record]]
change = "E32H"
class_assignment = "two"

[[record]]
change = "E35Y"
class_assignment = "three"

[[record]]
change = "A39Y"
class_assignment = "three"

[[record]]
change = "L24D"
class_assignment = "one"

[[record]]
change = "A39E"
class_assignment = "three"

[[record]]
change = "L37E"
class_assignment = "one"

[[record]]
change = "R38G"
class_assignment = "three"

[[record]]
change = "Y40Q"
class_assignment = "two"

[[record]]
change = "D42L"
class_assignment = "two"

[[record]]
change = "V26M"
class_assignment = "three"

